test system: PAM1032/KPC-2; test: Biapenem potentiation MPC64, PAM1032/KPC-2 (efflux proficient); format: cell-based, Pseudomonas aeruginosa; conditions: BLI to decrease MIC of biapenem 64-fold; MexAB-OprM overexpressed
EXPERIMENTAL_ENDPOINT: PAM1032/KPC-2 Biapenem MPC64

> print(dat)
                                   compound  measured.target  val
1  CNC(=O)CC(=O)N[C@H]1Cc2cccc(C(=O)O)c2OB1O [G, reference compound]    PAM1032/KPC-2   40
2  O=C(CSC1CNC1)N[C@H]1Cc2cccc(C(=O)O)c2OB1O [B, reference compound]    PAM1032/KPC-2  2.5
3  O=C(CSC(F)F)N[C@H]1Cc2cccc(C(=O)O)c2OB1O [C, reference compound]    PAM1032/KPC-2   80
4  O=CN[C@H]1Cc2cccc(C(=O)O)c2OB1O [F, reference compound]    PAM1032/KPC-2    5
5  O=C(Cc1cccs1)N[C@H]1Cc2cccc(C(=O)O)c2OB1O [I, reference compound]    PAM1032/KPC-2   80
6  Nc1nnc(C(=O)N[C@H]2Cc3cccc(C(=O)O)c3OB2O)s1 [H, reference compound]    PAM1032/KPC-2   80

* * *

target: P99 (Enterobacter cloacae); assay: Ki, nitrocefin cleavage by purified enzyme, P99; details: nitrocefin reporter substrate; read-out: Ki (P99, NCF)
Sequence (P05364 21-381): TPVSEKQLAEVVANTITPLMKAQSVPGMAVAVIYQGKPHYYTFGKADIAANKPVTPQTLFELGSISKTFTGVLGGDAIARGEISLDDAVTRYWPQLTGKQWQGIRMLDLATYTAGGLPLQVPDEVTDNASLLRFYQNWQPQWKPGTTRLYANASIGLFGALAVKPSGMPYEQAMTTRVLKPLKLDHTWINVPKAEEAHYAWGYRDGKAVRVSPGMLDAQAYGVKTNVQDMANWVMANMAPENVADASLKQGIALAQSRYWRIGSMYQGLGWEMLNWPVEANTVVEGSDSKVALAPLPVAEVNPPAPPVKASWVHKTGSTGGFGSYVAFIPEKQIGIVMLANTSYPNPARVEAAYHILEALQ
Collected Ki values appear next to each entry.
EXPERIMENTAL_ENDPOINT: Ki

> print(dat)
                                   compound      val
1  CSCC(=O)N[C@H]1Cc2cc(F)c(F)c(C(=O)O)c2OB1O [Compound 36]  > 10 nM
2  CSCC(=O)N[C@H]1Cc2ccc(Sc3nncn3C)c(C(=O)O)c2OB1O [Compound 35]  > 10 nM
3  O=C(CSC(F)F)N[C@H]1Cc2ccc(F)c(C(=O)O)c2OB1O [Compound 3]  > 10 nM

* * *

Target: KPC-2 (Klebsiella pneumoniae, UniProt Q9F663)
Sequence (Q9F663 25-293, looked up, species assumed): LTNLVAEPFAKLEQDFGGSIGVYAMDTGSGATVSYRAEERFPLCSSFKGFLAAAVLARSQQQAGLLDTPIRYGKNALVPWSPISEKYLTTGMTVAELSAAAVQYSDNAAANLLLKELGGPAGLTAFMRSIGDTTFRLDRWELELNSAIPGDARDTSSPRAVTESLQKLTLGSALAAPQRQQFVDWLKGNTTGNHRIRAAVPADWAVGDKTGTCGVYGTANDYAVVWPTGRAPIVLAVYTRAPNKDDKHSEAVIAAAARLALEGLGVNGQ
Assay: Ki, nitrocefin cleavage by purified enzyme, KPC-2
Conditions: nitrocefin reporter substrate; read-out: Ki (KPC-2, NCF)
Procedure: Purified enzymes were mixed with various concentrations of inhibitors in reaction buffer and incubated for 10 min at room temperature. Nitrocefin was added and substrate cleavage profiles were recorded at 490 nm every 10 sec for 10 min.
pKi: −log10 of the molar value.
Collected pKi values appear next to each entry.
EXPERIMENTAL_ENDPOINT: pKi

> print(dat)
                                   molecule                           measured.target           val
1   CSCC(=O)N[C@H]1Cc2ccc(O)c(C(=O)O)c2OB1O  KPC-2 (Klebsiella pneumoniae, UniProt Q9F663)        < 8.00
2  O=C(Cc1cccs1)N[C@H]1Cc2ccc(F)c(C(=O)O)c2OB1O  KPC-2 (Klebsiella pneumoniae, UniProt Q9F663)  8.00 to 9.00
3  CS(=O)(=O)CC(=O)N[C@H]1Cc2ccc(F)c(C(=O)O)c2OB1O  KPC-2 (Klebsiella pneumoniae, UniProt Q9F663)        < 8.00
4  CNC(=O)CC(=O)N[C@H]1Cc2ccc(F)c(C(=O)O)c2OB1O  KPC-2 (Klebsiella pneumoniae, UniProt Q9F663)        < 8.00
5  CSCC(=O)N[C@H]1Cc2ccc(Sc3nncn3C)c(C(=O)O)c2OB1O  KPC-2 (Klebsiella pneumoniae, UniProt Q9F663)        < 8.00
6  CSCC(=O)N[C@H]1Cc2ccc(SCC3CCNCC3)c(C(=O)O)c2OB1O  KPC-2 (Klebsiella pneumoniae, UniProt Q9F663)        < 8.00
7  COc1ccc2c(c1C(=O)O)OB(O)[C@@H](NC(=O)Cc1cccs1)C2  KPC-2 (Klebsiella pneumoniae, UniProt Q9F663)  8.00 to 9.00
8  O=C(O)CC(=O)N[C@H]1Cc2cccc(C(=O)O)c2OB1O [D, reference compound]  KPC-2 (Klebsiella pneumoniae, UniProt Q9F663)        < 8.00
9  CSCC(=O)N[C@H]1Cc2ccc(SCCO)c(C(=O)O)c2OB1O  KPC-2 (Klebsiella pneumoniae, UniProt Q9F663)        < 8.00
